target: hA2a/CHO (Homo sapiens (Human), UniProt P29274); assay: cAMP inhibition assay in hA2a/CHO cells, 10 μM adenosine; type: cell-based; settings: read-out: cAMP & FLIPR IC50 (nM) hA2a
Sequence (P29274 whole entry): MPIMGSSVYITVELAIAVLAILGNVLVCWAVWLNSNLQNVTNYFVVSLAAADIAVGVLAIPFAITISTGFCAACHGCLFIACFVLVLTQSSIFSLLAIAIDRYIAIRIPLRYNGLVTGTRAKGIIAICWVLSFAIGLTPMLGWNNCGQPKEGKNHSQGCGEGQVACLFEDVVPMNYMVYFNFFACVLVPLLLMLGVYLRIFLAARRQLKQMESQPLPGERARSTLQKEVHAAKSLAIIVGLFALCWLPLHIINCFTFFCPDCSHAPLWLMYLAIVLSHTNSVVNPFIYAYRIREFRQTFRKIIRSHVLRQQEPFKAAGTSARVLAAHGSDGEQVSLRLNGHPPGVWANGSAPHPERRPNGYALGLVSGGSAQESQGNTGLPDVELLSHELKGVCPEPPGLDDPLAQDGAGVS
Give IC50 for every item shown.
Please answer in the form of a number followed by its unit of measurement.

COMPOUND: CN(C)c1ccc(F)c(CNC(=O)c2nc(-c3ccc(=O)n(C)c3)c(-c3ncco3)nc2N)c1
IC50: 60 nM

Batch: IC50 for all items listed.
1. CO[C@H]1C[C@@H](NC(=O)c2nc(-c3ccc4ncc(C)n4c3)c(-c3ncco3)nc2N)C1
2. Cc1cc(-c2nc(C(=O)NCc3ccccc3Cl)c(N)nc2-c2ccc(F)cc2)cc(C)n1
3. Cc1cnc2ccc(-c3nc(C(=O)NC[C@@H]4CCCO4)c(N)nc3-n3nccn3)cn12
4. COc1ccccc1CNC(=O)c1nc(-c2cc(C)nc(C)c2)c(-c2ccc(C)o2)nc1N
5. Cc1cnc2ccc(-c3nc(CNC(=O)[C@H]4CCCN4C)c(N)nc3-n3nccn3)cn12
6. COC1CCC(NC(=O)c2nc(-c3ccc4ncc(C)n4c3)c(-c3ncco3)nc2N)CC1 (centres unmarked)

Output:
1. 5.1 nM
2. 33 nM
3. 3 nM
4. 0.6 nM
5. 5.8 nM
6. 5.7 nM

Task: What value of measured IC50 is listed for "Cc1cc(-c2nc(C(=O)NCc3cccc(N(C)C)n3)c(N)nc2-c2ccc(F)cc2)cc(C)n1" ?
Output: 5.4 nM

---

biological target: mA2a/CHO (Mus musculus (Mouse)); assay: cAMP inhibition assay in mA2a/CHO cells, 10 μM adenosine; type: cell-based; settings: read-out: cAMP & FLIPR IC50 (nM) mA2a;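 note: compounds preincubated 30 min at 37 °C before the adenosine challenge, then 30 min further stimulation, readout after 60 min detection reagent incubation at room temperature in 384-well plates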
Sequence (Q60613 whole entry): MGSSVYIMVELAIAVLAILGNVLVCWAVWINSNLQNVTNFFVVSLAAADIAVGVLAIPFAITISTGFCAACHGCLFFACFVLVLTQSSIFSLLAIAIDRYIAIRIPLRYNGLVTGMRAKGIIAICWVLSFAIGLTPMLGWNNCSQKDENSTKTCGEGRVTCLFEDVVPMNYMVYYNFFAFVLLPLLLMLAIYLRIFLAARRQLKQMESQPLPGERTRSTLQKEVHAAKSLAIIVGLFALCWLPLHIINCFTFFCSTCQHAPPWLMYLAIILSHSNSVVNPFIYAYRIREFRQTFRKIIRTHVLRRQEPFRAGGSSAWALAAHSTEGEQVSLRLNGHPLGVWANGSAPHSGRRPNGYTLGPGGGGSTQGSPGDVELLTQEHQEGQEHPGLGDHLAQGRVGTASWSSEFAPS
Give IC50 for every item shown.
Answers are plain numbers, in nM.

Batch: IC50 for all items listed.
1. Cc1ccn(-c2nc(N)c(C(=O)NC[C@H]3CCCN3C)nc2-c2ccc3ncc(C)n3c2)n1 [Example 201-2]
2. Cc1cc(-c2nc(C(=O)NCc3ccccc3Br)c(N)nc2-c2ccc(F)cc2)cc(C)n1 [Example 80]
3. Cc1cnc2ccc(-c3nc(C(=O)NCC4CCC(=O)N4C)c(N)nc3-c3ncco3)cn12 (racemic) [Example 212]
4. Cc1cnc2ccc(-c3nc(C(=O)NCC4CN(C)CCO4)c(N)nc3-c3ncco3)cn12 (racemic) [Example 207]
5. Cn1cc(-c2nc(C(=O)NCc3cccc(N4CCC4)n3)c(N)nc2-c2ncco2)ccc1=O [Example 26]

Output:
1: 519; 2: 158; 3: 175; 4: 44; 5: 309

---

Biological target: hA2a (Homo sapiens (Human))
Experiment: Radioligand binding to hA2a membrane with [3H]-CGS21680
Settings: read-out: Binding Affinity (IC50 nM) hA2a
Excerpt: The empty boxes in the tables below indicate data not collected yet.
Give IC50 for every item shown.
Numbers only, in nM.

COMPOUND: Cn1cc(-c2nc(C(=O)NCc3c(F)cccc3F)c(N)nc2-c2ncco2)ccc1=O [Example 3]
SUBJECT_OF_TEST: hA2a (Homo sapiens (Human))
ENDPOINT_VALUE: 1.9

COMPOUND: Cc1cnc2ccc(-c3nc(C(=O)NC[C@@H]4CCOC4)c(N)nc3-c3ncco3)cn12 [Example 137]
SUBJECT_OF_TEST: hA2a (Homo sapiens (Human))
ENDPOINT_VALUE: 3.9

COMPOUND: Cn1cc(-c2nc(C(=O)NCc3ncccc3F)c(N)nc2-c2ncco2)ccc1=O [Example 14]
SUBJECT_OF_TEST: hA2a (Homo sapiens (Human))
ENDPOINT_VALUE: 3.1

Batch: IC50 for all items listed.
1. Cc1cnc2ccc(-c3nc(C(=O)NC4CCC4)c(N)nc3-c3ncco3)cn12 [Example 218]
2. Nc1cccc(CNC(=O)c2nc(-c3ccc4nccn4c3)c(-c3ncco3)nc2N)n1 [Example 48]
3. COCCNC(=O)c1nc(-c2ccc3ncc(C)n3c2)c(-c2ncco2)nc1N [Example 147]
4. Cn1cc(-c2nc(C(=O)NCc3c(F)cccc3F)c(N)nc2-n2nccn2)ccc1=O [Example 35]
5. Cc1cnc2ccc(-c3nc(C(=O)NC[C@H]4CCCO4)c(N)nc3-c3ncco3)cn12 [Example 126]

Output:
1. 9.1
2. 3.1
3. 5.6
4. 3.2
5. 1.4

---

molecular target: hADORA1/CHO (hA1 expressing) cells (Homo sapiens (Human)); assay: cell-based; conditions: FLIPR inhibition, 10 μM adenosine, read-out: cAMP & FLIPR IC50 (nM) hA1
Sequence (P30542 whole entry): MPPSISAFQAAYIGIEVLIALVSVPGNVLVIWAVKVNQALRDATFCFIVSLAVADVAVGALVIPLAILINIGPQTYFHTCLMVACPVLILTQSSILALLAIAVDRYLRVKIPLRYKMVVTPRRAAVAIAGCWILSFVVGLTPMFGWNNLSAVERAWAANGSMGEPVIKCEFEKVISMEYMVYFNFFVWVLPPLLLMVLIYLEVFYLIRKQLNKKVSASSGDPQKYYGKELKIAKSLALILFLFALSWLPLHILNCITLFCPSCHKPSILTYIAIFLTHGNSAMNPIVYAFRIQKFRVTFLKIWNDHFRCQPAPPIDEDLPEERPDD
Give IC50 for every item shown.

COMPOUND: Cn1nc(-c2nc(C(=O)NCc3c(F)cccc3F)c(N)nc2-c2ncco2)ccc1=O
IC50: 28 nM
--
COMPOUND: NCc1cnc2ccc(-c3nc(C(=O)NCc4ncccc4F)c(N)nc3-c3ncco3)cn12
IC50: > 10000 nM
--
COMPOUND: Cc1cnc2ccc(-c3nc(C(=O)NCC4CN(C)CCO4)c(N)nc3-c3ccc(F)cc3)cn12 (single isomer, unassigned; isomer 2) [Example 250]
IC50: 36 nM
--
COMPOUND: Cn1cc(-c2nc(C(=O)NCc3c(F)cccc3N3CCOCC3)c(N)nc2-c2ncco2)ccc1=O
IC50: 32 nM
--
COMPOUND: CN1CCC[C@@H]1CNC(=O)c1nc(-c2ccc3ncn(C)c3c2)c(-n2nccn2)nc1N
IC50: 10000 nM
--
COMPOUND: Cc1cnc2ccc(-c3nc(C(=O)NC(C)C4CCCO4)c(N)nc3-c3ncco3)cn12 (single isomer, unassigned; isomer 2) [Example 262]
IC50: 11600 nM

Batch: IC50 for all items listed.
1. Cc1cnc2ccc(-c3nc(C(=O)NCC4CCCN(C)C4=O)c(N)nc3-c3ncco3)cn12 (single isomer, unassigned; isomer 1) [Example 263]
2. CCNC(=O)c1nc(-c2ccc3ncc(C)n3c2)c(-c2ncco2)nc1N

Output:
103 nM
10000 nM

Task: What value of measured IC50 is listed for Cc1cnc2ccc(-c3nc(C(=O)NCCN(C)C4CCOC4)c(N)nc3-c3ncco3)cn12 (racemic) ?
Output: 1910 nM

---

target: hA2a/CHO (Homo sapiens (Human)); experiment: cAMP inhibition assay in hA2a/CHO cells, 10 μM adenosine; format: cell-based; details: read-out: cAMP & FLIPR IC50 (nM) hA2a
OBSERVABLE: log10 IC50 (log10 of the value in nM)
Parameter value (number): base-10 log of IC50 in nM.

MOLECULE: Cc1cnc2ccc(-c3nc(C(=O)NCc4cccc(N5CCN(C)CC5)n4)c(N)nc3-c3ncco3)cn12
ENDPOINT_VALUE: 0.11
//
MOLECULE: CN1CCC[C@@H]1CNC(=O)c1nc(-c2ccc3ncn(C)c3c2)c(-n2nccn2)nc1N
ENDPOINT_VALUE: 2.52
//
MOLECULE: COc1ccccc1CNC(=O)c1nc(-c2cc(C)c(=O)n(C)c2)c(-c2ccc(F)cc2)nc1N
ENDPOINT_VALUE: 1.28

Batch: log10 IC50 for all items listed.
1. Cn1cc(-c2nc(C(=O)NCc3c(F)cccc3N3CCOCC3)c(N)nc2-c2ncco2)ccc1=O
2. Cc1cnc2ccc(-c3nc(C(=O)NCC4CC(=O)N(C)C4)c(N)nc3-c3ncco3)cn12 (single isomer, unassigned; isomer 2) [Example 210]
3. CCc1cnn2ccc(-c3nc(C(=O)NC[C@@H]4CCCN4C)c(N)nc3-c3ncco3)cc12

Output:
[0.89, 1.04, 2.15]

Task: What value of measured log10 IC50 is listed for "Cc1cc(-c2nc(C(=O)NCc3c(F)cccc3F)c(N)nc2-c2ncco2)cc(C)n1" ?
Output: 1.45

---

Give log10 IC50 for every item shown.
biological target: hA2a/CHO (Homo sapiens (Human), UniProt P29274); test: cAMP inhibition assay in hA2a/CHO cells, 10 μM adenosine; type: cell-based; conditions: read-out: cAMP & FLIPR IC50 (nM) hA2a;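 note: compounds added to cells 30 min ahead of adenosine, then a further 30 min at 37 °C with adenosine before cAMP detection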
Parameter value (number): base-10 log of IC50 in nM.

Examples with their reported log10 IC50 follow.
COMPOUND: COc1ccccc1CNC(=O)c1nc(-c2cc(C)nc(C)c2)c(-c2cnn(C)c2)nc1N
ENDPOINT_VALUE: 1.52

COMPOUND: Cc1cnc2ccc(-c3nc(C(=O)NCC4CCOCC4)c(N)nc3-c3ncco3)cn12
ENDPOINT_VALUE: 0.68

COMPOUND: Cc1cnc2ccc(-c3nc(C(=O)NCc4cccc(N5[C@@H]6CC[C@H]5CN(C)C6)n4)c(N)nc3-c3ncco3)cn12
ENDPOINT_VALUE: 0.71

Batch: log10 IC50 for all items listed.
1. Cc1cnc2ccc(-c3nc(C(=O)N[C@@H]4CCCOC4)c(N)nc3-c3ncco3)cn12 (single isomer, unassigned; isomer 2)
2. Cc1ccn(-c2nc(N)c(C(=O)NC[C@H]3CCCN3C)nc2-c2ccc3ncc(C)n3c2)n1
3. Cc1cnc2ccc(-c3nc(C(=O)NCc4cccc(N5CCC(N(C)C)CC5)n4)c(N)nc3-c3ncco3)cn12
4. COCCNC(=O)c1nc(-c2ccc3ncc(C)n3c2)c(-n2nccn2)nc1N
5. Cc1ccc(-c2nc(N)c(C(=O)NCc3c(F)cccc3F)nc2-c2ccc(=O)n(C)c2)o1

Output:
-0.03
1.46
0.38
0.88
-0.05

Batch: log10 IC50 for all items listed.
1. Nc1nc(-c2ncco2)c(-c2ccc(=O)[nH]c2)nc1C(=O)NCc1c(F)cccc1F
2. Cn1cc(-c2nc(C(=O)NCc3c(F)cccc3P(C)(C)=O)c(N)nc2-c2ncco2)ccc1=O
3. CNCCOc1cccnc1CNC(=O)c1nc(-c2ccc3ncc(C)n3c2)c(-c2ccc(F)cc2)nc1N
4. Nc1nc(-c2ncco2)c(-c2ccc(=O)n(C(F)F)c2)nc1C(=O)NCc1ncccc1F
5. COCCOc1cccnc1CNC(=O)c1nc(-c2ccc3ncn(C)c3c2)c(-c2ccc(F)cc2)nc1N
6. Cn1cc(-c2nc(C(=O)NCc3c(F)cccc3F)c(N)nc2-c2ncco2)ccc1=O
7. Cn1cc(-c2nc(C(=O)NCc3ncccc3OC(F)(F)F)c(N)nc2-c2ncco2)ccc1=O

Output:
1: -1.00; 2: 1.70; 3: -0.15; 4: 1.53; 5: -0.15; 6: 0.65; 7: 1.65
